Each recorded value in this set is attributed to patent EP1655287A1.

# assayed-system: senile plaques (Homo sapiens, UniProt P05067)
# Construct: The former has, as the main component, amyloid β-protein (Aβ protein) taking β-sheet structures; from tissue; host or cells: paraffin-embedded temporal lobe or hippocampus sections of an Alzheimer's disease patient's brain (Fukushimura Hospital)
# Sequence (P05067 672-713 limits assumed): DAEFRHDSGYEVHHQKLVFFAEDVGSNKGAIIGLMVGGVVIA
# experimental-details: Staining of senile plaques and diffuse plaques in brain sections, compared with thioflavin S, BSB or anti-Aβ antibody 6F/3D immunostaining
# Format: binding, patient with Alzheimer's disease
# measurement-setup: 100 µM compound in 50% ethanol; compared with thioflavin S (and BSB) on adjacent sections
metric: staining properties in sections of the brain of a patient with Alzheimer's disease

{"smiles-repr": "Cc1nc(/C=C/c2cnc(N(C)C)s2)oc1C", "assay-result": "stains senile plaques"}
{"smiles-repr": "CNc1ccc(/C=C/C=C/C=C/c2ccc3ccccc3n2)cc1", "assay-result": "stains senile plaques"}
